Data origin, for the record: paper PMC12608155

system: L. donovani IRFP axenic amastigotes; test: Primary single-concentration screening on axenic amastigotes, growth inhibition at 72 h; format: cell-based, Leishmania donovani; settings: 10 µM, experiment 1, 72 h, axenic amastigotes
OBSERVATION TYPE: Growth Inhibition (%) at 72h, 10 µM_Exp1
Reply with a number, then the unit it belongs to.

Need Growth Inhibition (%) at 72h, 10 µM_Exp1, item CN1c2ccccc2C(=O)N2CCc3c([nH]c4ccccc34)[C@@H]21 (racemic) [(±)-Evodiamine] 100.52%

Please answer likewise for `COc1cc2c(cc1OC)[C@H]1[C@@H](C)c3ccc(OC)c(OC)c3CN1CC2` 79.13%

Please answer likewise for [Cl-].c1c2c(cc3c1OCO3)-c1cc3ccc4c(c3c[n+]1CC2)OCO4 [Coptisine (chloride)] 84.96%
